target: FLT3 (Homo sapiens); construct: purchased Reaction Biology (RBC HotSpot Kinase Assay); assay: RBC HotSpot Kinase Assay, FLT3; format: biochemical
Documented pIC50 across a set of molecules
In simple prose, pIC50 is minus the logarithm base ten of a concentration in moles per litre.

| Molecule | pIC50 |
| --- | --- |
| CC(C)(O)Cn1cc(-c2ccc3ncc(-c4cccc(N[C@H]5CCNC[C@@H]5F)n4)n3n2)cn1 [Compound 8] | 8.10 |

Identify the measured pIC50 of COc1cc2ncc(-c3cccc(N[C@@H]4CCNC4)n3)n2nc1C1(C(F)(F)F)CC1 [Compound 81] for FLT3 (Homo sapiens).
8.70

// lookup pIC50 | system=FLT3 (Homo sapiens) | key= F[C@H]1CNC[C@@H]1Nc1cccc(-c2cnc3cc(Cl)cnn23)n1 [Compound 110]
8.22

// fetch FLT3 (Homo sapiens) pIC50 for c1ccc(-n2cc(-c3ccc4ncc(-c5cccc(NC6CC7(CNC7)C6)n5)n4n3)cn2)cc1 [Compound 33]
7.80

Provide value of pIC50 for this record tested with FLT3 (Homo sapiens): COc1cc2ncc(-c3cccc(N[C@@H]4CCNC4)n3)n2nc1C1CC1 [Compound 97]
9.22

Return pIC50 measured with FLT3 (Homo sapiens) given this molecule: c1cc(NC2CCC3(CNC3)C2)nc(-c2cnc3ccc(-c4cnn(C5CCOCC5)c4)nn23)c1 (centres unmarked) [Compound 48]
7.92

---

target: FLT3 (Homo sapiens, UniProt P36888); construct: purchased Reaction Biology (RBC HotSpot Kinase Assay); assay: RBC HotSpot Kinase Assay, FLT3; type: biochemical
Sequence (P36888 564-958 limits assumed): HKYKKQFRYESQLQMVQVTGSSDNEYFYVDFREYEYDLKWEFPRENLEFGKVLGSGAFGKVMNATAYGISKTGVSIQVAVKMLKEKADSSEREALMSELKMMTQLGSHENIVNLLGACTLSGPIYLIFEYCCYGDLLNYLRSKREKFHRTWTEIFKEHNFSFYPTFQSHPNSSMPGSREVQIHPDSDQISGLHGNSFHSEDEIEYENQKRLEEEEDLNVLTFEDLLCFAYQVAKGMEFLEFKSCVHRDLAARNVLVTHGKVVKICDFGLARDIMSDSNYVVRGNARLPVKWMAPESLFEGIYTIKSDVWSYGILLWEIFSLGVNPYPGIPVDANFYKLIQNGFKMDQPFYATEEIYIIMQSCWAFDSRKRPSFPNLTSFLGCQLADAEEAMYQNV
Listed here: items and their measured IC50.

# annotated cases, reported IC50 shown
| Molecule | IC50 |
| --- | --- |
| c1cc(N[C@@H]2CCCNC2)nc(-c2cnc3ccc(-c4cnn(C5CC5)c4)nn23)c1 | < 0.5 nM |
| c1ccc(-n2cc(-c3ccc4ncc(-c5cccc(NC6CCC7(CNC7)C6)n5)n4n3)cn2)cc1 (stereo not drawn) | 19 nM |
| COc1cc2ncc(-c3nc(N[C@@H]4CCCNC4)c(F)cc3F)n2nc1C1CC1 | < 0.5 nM |
| COc1cc2ncc(-c3nc(N[C@H]4CNCC[C@@H]4F)c(F)cc3F)n2nc1C1CC1 | < 0.5 nM |

Data request, read-out IC50, for Cn1cc(-c2ccc3ncc(-c4cccc(N[C@@H]5CCCNC5)n4)n3n2)cn1
< 0.5 nM

Requested field: IC50. Item: c1cc(NC2CCC3(CNC3)C2)nc(-c2cnc3ccc(-c4cn[nH]c4)nn23)c1 (stereo not drawn)
< 0.5 nM

---

tested on: MOLM14 F691L cells; test: MOLM14 F691L cell viability assay (Cell Titer Glo); assay type: cell-based; conditions: Homo sapiens, MOLM-14, 48 h
Measurement Name: IC50 (nM)
Express the result in nM but write the number alone.

| Compound | Unit Tag | IC50 |
| --- | --- | --- |
| Cn1cc(-c2ccc3ncc(-c4cccc(N[C@H]5CNC[C@@H]5F)n4)n3n2)cn1 [Compound 1] | nM | 1680 |
| COc1cc2ncc(-c3cccc(N[C@H]4CNC[C@@H]4F)n3)n2nc1C1CC1 [Compound 96] | nM | 673 |
| COc1cc2ncc(-c3cccc(N[C@H]4CNC[C@@H]4C(F)(F)F)n3)n2nc1C1CC1 [Compound 99] | nM | 269 |
| COc1cc2ncc(-c3nc(N[C@@H]4CCCNC4)c(F)cc3F)n2nc1C1CC1 [Compound 106] | nM | 29 |
| COc1cc2ncc(-c3cccc(N[C@H]4CNCC[C@@H]4F)n3)n2nc1-c1cnn(C)c1 [Compound 122] | nM | 686 |

Let's switch to this compound now.
// lookup IC50 for COc1cc2ncc(-c3cc(F)cc(N[C@@H]4CCCNC4)n3)n2nc1C1CC1 [Compound 104]
1150
